B1: VTI1B (parent)
chain: NKLLLSIIILLELAILGGLVYYKF

Variants of: B1
Assay: protein stability index of a GFP-peptide fusion (GPS, HEK-293T) (PSI 1-6); higher = more stable;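 further: lentivirally expressed fusions sorted by FACS into six bins by GFP to DsRed ratio, PSI derived from sequencing read proportions per bin multiplied by bin number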
Details: c terminus: a fixed tail appended
Outcome: t for protein stability index of at least 3; f for anything lower.

>>> df
    mutation_id  assigned_category
 0         Y22W                  t
 1          L3K                  f
 2         L11Q                  t
 3         L19I                  t
 4          K2F                  t
 5         L16D                  f
 6         L11F                  f
 7         L11T                  f
 8         G17R                  f
 9          K2D                  f
10          K2V                  t
11         Y21N                  f
12         A14G                  t
13         L19Q                  t
14         A14Q                  t
15         Y22D                  f
16          K2M                  f
17         A14R                  t
18         Y21T                  f
19         L13P                  t
